- MEASUREMENT_TARGET: T1, human PVRIG-his (AcroBiosystems, Cat NO. PVG-H52H4) (human, UniProt Q6DKI7 41-171, limits assumed)
- T1 construct: also called human PVRIG protein
- T1 sequence (looked up): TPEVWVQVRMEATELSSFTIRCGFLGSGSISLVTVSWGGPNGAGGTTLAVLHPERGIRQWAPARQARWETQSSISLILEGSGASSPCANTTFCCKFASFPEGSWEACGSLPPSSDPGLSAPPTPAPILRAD
- PROTOCOL_NOTES: SPR (BIAcore), antibody captured on Protein A chip, human PVRIG-His analyte
Outcome: T for koff of at least 0.001 s⁻¹; F for anything lower.

PVRIG-A118-H5 (Fc fusion, humanized variant of PVRIG-A118; also called A118.VH5; not shown: constant part not restated for the humanized forms; parents are VHH-hinge-CH2-CH3 of human IgG1; detected by anti-human) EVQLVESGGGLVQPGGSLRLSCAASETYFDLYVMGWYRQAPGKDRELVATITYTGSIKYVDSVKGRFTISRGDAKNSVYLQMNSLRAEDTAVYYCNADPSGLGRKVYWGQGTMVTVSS: T
PVRIG-A118-H6 (Fc fusion, humanized variant of PVRIG-A118; also called A118.VH6; not shown: constant part not restated for the humanized forms; parents are VHH-hinge-CH2-CH3 of human IgG1; detected by anti-human) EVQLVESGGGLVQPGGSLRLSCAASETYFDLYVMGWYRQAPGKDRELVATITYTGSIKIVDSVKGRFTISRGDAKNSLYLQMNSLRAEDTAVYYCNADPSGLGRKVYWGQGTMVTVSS: T
PVRIG-A105-H2 (Fc fusion, humanized variant of PVRIG-A105; also called A105 VH2; not shown: constant part not restated for the humanized forms; parents are VHH-hinge-CH2-CH3 of human IgG1; detected by anti-human) EVQLVESGGGLVQPGGSLRLSCAASGRTFDRHTMTWFRQAPGKEREFVATASRIPGDTYYVDSVKGRFTISRDNAKNSLYLQMNSLRAEDTAVYYCAATSAYCSEVDCYEKGSWYDNWGQGTMVTVSS: F

Exam item: decide whether the reported koff for PVRIG-A50-H1d (Fc fusion, humanized variant of PVRIG-A50; also called A50.VH1d; not shown: constant part not restated for the humanized forms; parents are VHH-hinge-CH2-CH3 of human IgG1; detected by anti-human) EVQLVESGGGLVQPGGSLRLSCAASGFTFSYYDMSWVRQAPGKGLEWVSTINSNGGRTSYVDSVKGRFTISRDNSKNTLYLQMNSLRAEDTAVYYCVEGDPHNFGLESLSLRDFGSWGQGTMVTVSS is at least 0.001 s⁻¹.
F

Exam item: decide whether the reported koff for PVRIG-A50-H1c (Fc fusion, humanized variant of PVRIG-A50; also called A50.VH1c; not shown: constant part not restated for the humanized forms; parents are VHH-hinge-CH2-CH3 of human IgG1; detected by anti-human) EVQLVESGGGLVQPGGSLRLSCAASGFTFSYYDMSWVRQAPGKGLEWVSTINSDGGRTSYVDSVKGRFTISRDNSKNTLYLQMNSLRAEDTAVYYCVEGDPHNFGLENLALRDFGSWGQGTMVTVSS is at least 0.001 s⁻¹.
F

meta.source: patent US20240343803A1
